- System: A549 NSCLC
Where a SMILES comes first, the peptide text is derived from it.
Choose the fitting class; nothing outside label 1 for active, label 0 for inactive is accepted.

*Q* Entry C#CCN=C(N/N=C/c1ccc([N+](=O)[O-])o1)NS(=O)(=O)c1cc(C)c(Cl)cc1SCC(N)=O : call = ?
*A* label 0

*Q* Record lookup: outcome of this test for CCCc1cc2cc(-n3nc(C)c4c3CC(C)(C)CC4=O)cc(NC3CCC(O)CC3)c2c(=O)[nH]1 (centres undefined) ?
*A* label 1

*Q* What did the test return for CCN(CC)CCOc1ccc(/C(=C(\C)Cc2ccc(OC)cc2)c2ccc(OC(=O)NCc3ccccc3)cc2)cc1 ?
*A* label 0

*Q* Write down the call the test reported for this molecule. Item: Clc1cc(Cl)c(Cl)c(-c2nc(-c3cccnc3)cs2)c1
*A* label 0

*Q* So what was the verdict on C=C1C(=O)O[C@H]2[C@H]1CC/C(COC(=O)CCCCCCCCC(=O)OC/C1=C/CC[C@@]3(C)O[C@H]3[C@H]3OC(=O)C(=C)[C@@H]3CC1)=C\CC[C@@]1(C)O[C@@H]21 in this test?
*A* label 0

*Q* Each molecule tested received a call. Report the one for NC1=C(Cl)C(=O)c2ccc(S(N)(=O)=O)cc2C1=O .
*A* label 1

*Q* Recorded test outcome, item CNNCc1ccc(C(=O)NC(C)C)cc1
*A* label 0

*Q* Test call, this molecule: CC(C)CC(NC(=O)C(CC(C)C)NC(=O)C(Cc1cnc[nH]1)NC(=O)C(C)NC(=O)C(NC(=O)C(C)NC(=O)C(Cc1c[nH]c2ccccc12)NC(=O)C(CCC(=O)O)NC(=O)C(N)Cc1ccccc1)C(C)C)C(N)=O (centres undefined) (H-FEWAVAHLL-NH2; configuration not given here)
*A* label 0

*Q* Dear colleague, could you share the recorded outcome for COc1ccc(-c2cnc3ccnn3c2-c2cc(OC)c(OC)c(OC)c2)cc1 when you have a moment?
*A* label 0

*Q* Look up the recorded call for O=C(O)C1NCCc2c1[nH]c1ccccc21 (centres undefined) in this test.
*A* label 0

*Q* Any idea what this test logged for CN(C)C(=O)/N=c1\ss/c(=N\C(=S)N(C)C)n1-c1ccccc1 ?
*A* label 1

*Q* Status in this test for O=C1/C(=C\C(Cl)=C/c2ccc([N+](=O)[O-])cc2)SC(=S)N1CCc1ccc(O)cc1 ?
*A* label 0

*Q* Returns: the outcome recorded for CN(C)CCCN(c1nc(C(Cl)(Cl)Cl)ns1)c1nc(C(Cl)(Cl)Cl)ns1 in this assay.
*A* label 0

*Q* Status in this test for COc1cc(C#N)cc(OC)c1OCCOCCOc1c(OC)cc(C#N)cc1OC ?
*A* label 0

* * *

This document collects GI50 values reported for SN12C renal.
Where a SMILES comes first, the peptide text is derived from it.

*Q* Entry CC1(C)CC(=O)C2=C(C1)NC(SSC1=C(C#N)C(c3ccc(F)cc3)C3=C(CC(C)(C)CC3=O)N1)=C(C#N)C2c1ccc(F)cc1 (configuration not stated) has what GI50?
*A* 27.9 µg/mL

*Q* // lookup GI50 for CN(C)CCCN(c1nc(C(Cl)(Cl)Cl)ns1)c1nc(C(Cl)(Cl)Cl)ns1
*A* 3.42 µM

*Q* GET /values?readout=GI50&item= O=C(O)c1ccc2c(c1Nc1ccccc1)C(=O)c1ccccc1C2=O
*A* 50.3 µM

*Q* Would you kindly share the measured GI50 for CC(C)CC(NC(=O)C(CC(C)C)NC(=O)C(Cc1cnc[nH]1)NC(=O)C(C)NC(=O)C(NC(=O)C(C)NC(=O)C(Cc1c[nH]c2ccccc12)NC(=O)C(CCC(=O)O)NC(=O)C(N)Cc1ccccc1)C(C)C)C(N)=O (configuration not stated) (H-FEWAVAHLL-NH2; configuration not given here) ?
*A* > 100 µM

*Q* I have this compound here, COc1ccc(/C(C)=C(\c2ccc(Cl)cc2)c2ccc(OCCN3CCCC3)cc2)cc1F , and I need its recorded GI50.
*A* 3.55 µM

*Q* Looking for the measured GI50 of CCOC(=O)c1c(C)nc2ccc(Cl)cc2c1-c1ccccc1 , can you help?
*A* 16.8 µM

*Q* Need GI50, item CCN(CC)CCOc1ccc(/C(=C(\C)Cc2ccc(OC)cc2)c2ccc(OC(=O)NCc3ccccc3)cc2)cc1
*A* 1.73 µM

* * *

- Test system: OVCAR-3 ovarian
Please reply with one of these outcomes: true (1) (active), false (0) (inactive)

*Q* Assay result, entry CN[C@]12CC3(C=CC(=O)C=C3)O[C@@]1(Cc1ccc(OC)cc1)N(C)C(=O)N2 — outcome?
*A* false (0)

*Q* Assay outcome for Cn1ncc2c(/N=C/c3cccs3)[nH]c(=S)nc21 : what was it?
*A* false (0)

*Q* What did this assay record as the result for CCOC(=O)/C(=C/c1ccc([N+](=O)[O-])cc1)C(=O)c1ccccc1 ?
*A* false (0)

*Q* Which result was noted for this compound in the test: COc1ccc(/C(C)=C(\c2ccc(Cl)cc2)c2ccc(OCCN3CCCC3)cc2)cc1F
*A* false (0)

*Q* For this compound, state the assay outcome: CCCc1cc2cc(-n3nc(C)c4c3CC(C)(C)CC4=O)cc(NC3CCC(O)CC3)c2c(=O)[nH]1 (configuration not stated)
*A* false (0)

*Q* Would you mind telling me which call this test gave CCOC(=O)c1ccc(N(CCOS(C)(=O)=O)CCOS(C)(=O)=O)cc1C ?
*A* false (0)

*Q* Test call for this compound, please: O=C1/C(=C\C(Cl)=C/c2ccc([N+](=O)[O-])cc2)SC(=S)N1CCc1ccc(O)cc1
*A* true (1)

*Q* Test call for this compound, please: N.N.N.N.N.N.[I-].[Os]
*A* false (0)

*Q* Please indicate how the test categorized O=C1C(=O)c2ccccc2-c2ccccc21 .
*A* false (0)

*Q* Record lookup: outcome of this test for C#CCN=C(N/N=C/c1ccc([N+](=O)[O-])o1)NS(=O)(=O)c1cc(C)c(Cl)cc1SCC(N)=O ?
*A* false (0)

*Q* State the result this test recorded for COc1cc(/C=C/C(=O)c2ccc(Nc3ncnc4ccccc34)cc2)cc(OC)c1 .
*A* false (0)

*Q* # fetch the recorded call for CC1(C)CC(=O)C2=C(C1)NC(SSC1=C(C#N)C(c3ccc(F)cc3)C3=C(CC(C)(C)CC3=O)N1)=C(C#N)C2c1ccc(F)cc1 (configuration not stated) here
*A* false (0)

* * *

- Test system: CCRF-CEM leukemia
Where a SMILES comes first, the peptide text is derived from it.
In this exercise, the only acceptable responses are 1.0 (active), 0.0 (inactive)

*Q* Recorded test outcome, item O=C(Nc1ccccc1)Nc1cccc(-n2cc(-c3ccncc3)c(-c3ccc(O)c(Cl)c3)n2)c1
*A* 0.0

*Q* Please state the recorded outcome for this compound: Cc1n[nH]c(=S)n1/N=C/c1ccc(F)c(Oc2ccccc2)c1
*A* 0.0

*Q* Just curious, what result did COc1cc2ccc3c4c(OC)cc(OC)c(OC)c4c(=O)n(C)c3c2cc1OC get here?
*A* 0.0

*Q* Could you please tell me the result logged for Cn1cccc1-c1cc(-c2cccs2)[nH]c(=O)c1C#N in this assay?
*A* 0.0

*Q* Recorded test call requested for COc1ccc(/C(C)=C(\c2ccc(Cl)cc2)c2ccc(OCCN3CCCC3)cc2)cc1F
*A* 0.0

*Q* Hello, I am checking results. What call was entered for O=C(O)c1ccc2c(c1Nc1ccccc1)C(=O)c1ccccc1C2=O ?
*A* 0.0

*Q* I would be grateful if you could indicate the recorded call for CC(C)CC(NC(=O)C(CC(C)C)NC(=O)C(Cc1cnc[nH]1)NC(=O)C(C)NC(=O)C(NC(=O)C(C)NC(=O)C(Cc1c[nH]c2ccccc12)NC(=O)C(CCC(=O)O)NC(=O)C(N)Cc1ccccc1)C(C)C)C(N)=O (centres undefined) (H-FEWAVAHLL-NH2; configuration not given here) .
*A* 0.0

*Q* Per the assay record, what outcome was assigned to C=C1C(=O)O[C@H]2[C@H]1CC/C(Cn1cc(Cn3ccc4ccccc43)nn1)=C\CC[C@@]1(C)O[C@@H]21 ?
*A* 1.0

*Q* What classification did COc1ccc(N(CC(=O)NCCC[Te]c2ccccc2)C(=O)CCSC2=C(C)C(=O)c3ccccc3C2=O)cc1 end up with in this test?
*A* 0.0

* * *

- Test system: PC-3 prostate
metric: GI50

*Q* Request - read-out GI50 | tested on PC-3 prostate | molecule S=c1nc2[nH]ncc2c(N/N=C/c2ccccc2)[nH]1
*A* > 100000 nM

*Q* Tell me reported GI50 for CC1(C)CC(=O)C2=C(C1)NC(SSC1=C(C#N)C(c3ccc(F)cc3)C3=C(CC(C)(C)CC3=O)N1)=C(C#N)C2c1ccc(F)cc1 (centres undefined) , tested with PC-3 prostate.
*A* 27.1 µg/mL

*Q* API: value(readout= GI50, system= PC-3 prostate, query= ClCc1ccc(-c2ccc(Cn3cnc4c(Cl)nc(Cl)nc43)cc2)cc1 )
*A* 2210 nM

*Q* Quick check: GI50 on PC-3 prostate, item CN1CCC[C@@H]1CCO[C@](C)(c1ccccc1)c1ccc(Cl)cc1 ?
*A* 4580 nM

*Q* Form entry - test system: PC-3 prostate; read-out: GI50; molecule: C=C1C(=O)O[C@H]2[C@H]1CC/C(COC(=O)CCCCCCCCC(=O)OC/C1=C/CC[C@@]3(C)O[C@H]3[C@H]3OC(=O)C(=C)[C@@H]3CC1)=C\CC[C@@]1(C)O[C@@H]21
*A* 1990 nM

*Q* Entry CCOC(=O)c1c(-c2ccccc2)[n+](=O)c2ccc(Cl)cc2n1[O-] , system PC-3 prostate: what GI50 was measured?
*A* 3050 nM

*Q* Item: CCOC(=O)c1ccc(N(CCOS(C)(=O)=O)CCOS(C)(=O)=O)cc1C Test system: PC-3 prostate Read-out: GI50 Value: ?
*A* 30400 nM

*Q* Please state recorded GI50 (tested on PC-3 prostate) of COc1cc(/C=C2\CN(C)C/C(=C\c3cc(OC)c(OC)c(OC)c3)C2=O)cc(OC)c1OC
*A* 1320 nM

*Q* Form field - read-out: GI50; system: PC-3 prostate; submitted item: CCCCCCCC/C=C/CCCCCCCC1=NC(C)(C)CN1C(C)C
*A* 1310 nM
